Reference source for all entries: patent US20060269997A1

IC50 for assorted binders
- TESTED_TARGET: T1, KDR (1-3) monomer (UniProt P35968 20-327, limits assumed, biotin-labeled in the ELISA of Example 8)
- T1 construct: domain: domains 1 to 3; Genentech reagent; also called domains 1 to 3 of KDR
- T1 sequence (P35968 20-327 limits assumed): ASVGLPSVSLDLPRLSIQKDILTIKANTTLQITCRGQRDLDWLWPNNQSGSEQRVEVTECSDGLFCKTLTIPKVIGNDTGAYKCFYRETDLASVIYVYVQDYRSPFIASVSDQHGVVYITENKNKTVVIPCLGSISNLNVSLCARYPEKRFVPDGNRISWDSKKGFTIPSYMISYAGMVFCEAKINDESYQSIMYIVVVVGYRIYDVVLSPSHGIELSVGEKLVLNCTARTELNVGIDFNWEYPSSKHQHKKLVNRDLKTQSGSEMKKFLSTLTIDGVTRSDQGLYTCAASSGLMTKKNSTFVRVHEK
- PROCEDURE_SUMMARY: competition ELISA vs biotinylated VEGF (8-109), soluble KDR (1-3) captured by MAKD5
MEASURED_METRIC: IC50 (nM)

{"BINDER": "LK-VRB-21s (ligand, human, UniProt P15692-4 27-135, looked up) APMAEGGGQNHHEVVKFEDVLRRSSCHPIETLVDIFQEYPDEIEYIFKPSCVPLMRCGGCCNSEGLECVPTEESNITMQIMRIKPHQGQHIGEMSFLQHNKCECRPKKD", "MEASURED_METRIC": "IC50", "UNIT_SYMBOL": "nM", "OBSERVED_RESULT": 3}
{"BINDER": "LK-VRB-15s (ligand, human, UniProt P15692-4 27-135, looked up) APMAEGGGQNHHEVVKFMDVLQRSSCHPIETLVDIFQEYPDEIEYIFKPSCVPLMRCGGCCNSEMRECVPTEESNITMQIMRIKPHQGQHIGEMSFLQHNKCECRPKKD", "MEASURED_METRIC": "IC50", "UNIT_SYMBOL": "nM", "OBSERVED_RESULT": 2}
{"BINDER": "LK-VRB-17s (ligand, human, UniProt P15692-4 27-135, looked up) APMAEGGGQNHHEVVKFEDVLRRSYCHPIETLVDIFQEYPDEIEYIFKPSCVPLMRCGGCCNSEMRECVPTEESNITMQIMRIKPHQGQHIGEMSFLQHNKCECRPKKD", "MEASURED_METRIC": "IC50", "UNIT_SYMBOL": "nM", "OBSERVED_RESULT": 3}
{"BINDER": "LK-VRB-10s (ligand, human, UniProt P15692-4 27-135, looked up) APMAEGGGQNHHEVVKFMDVYQRSSCHPIETLVDIFQEYPDEIEYIFKPSCVPLMRCGGCCNSEMRECVPTEESNITMQIMRIKPHQGQHIGEMSFLQHNKCECRPKKD", "MEASURED_METRIC": "IC50", "UNIT_SYMBOL": "nM", "OBSERVED_RESULT": 0.5}
